- measured.on: Glucagon receptor (Homo sapiens)
- Sequence (P47871 whole entry): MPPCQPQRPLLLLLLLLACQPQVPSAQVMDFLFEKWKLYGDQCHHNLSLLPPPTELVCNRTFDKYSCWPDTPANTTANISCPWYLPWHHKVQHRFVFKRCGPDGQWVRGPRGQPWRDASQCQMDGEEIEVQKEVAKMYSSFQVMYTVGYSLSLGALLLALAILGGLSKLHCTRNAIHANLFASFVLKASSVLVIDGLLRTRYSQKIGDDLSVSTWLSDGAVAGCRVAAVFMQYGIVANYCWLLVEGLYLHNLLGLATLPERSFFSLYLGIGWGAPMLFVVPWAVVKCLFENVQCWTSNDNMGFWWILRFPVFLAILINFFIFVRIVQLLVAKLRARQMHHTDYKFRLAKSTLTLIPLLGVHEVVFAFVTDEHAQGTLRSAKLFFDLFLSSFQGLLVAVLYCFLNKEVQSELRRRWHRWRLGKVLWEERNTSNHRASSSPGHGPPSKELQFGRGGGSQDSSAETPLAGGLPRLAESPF
- experiment.summary: Displacement of [125I]-glucagon from wild type human glucagon receptor expressed in CHOK1 cells after 3 hrs by micro beta scintillation counting analysis
- Type: cell-based
pIC50: −log10 of the molar value.
# key: entry, value: pIC50

{"compound": "Cc1c(-c2cc(Cl)cc(Cl)c2)nn(C(C)c2ccc(C(=O)NCCC(=O)O)cc2)c1-c1ccccc1-c1ccccc1 (stereo not given)", "pIC50": 6.51}
{"compound": "COc1ccc2cc(-c3c(C)c(-c4cccc(C(F)(F)F)c4)nn3C(C)c3ccc(C(=O)NCCC(=O)O)cc3)ccc2c1 (stereo not given)", "pIC50": 7.15}
{"compound": "Cc1c(-c2cc(Cl)cc(Cl)c2)nn(C(C)c2ccc(C(=O)NCCC(=O)O)cc2)c1-c1ccc2ncccc2c1 (stereo not given)", "pIC50": 6.30}
{"compound": "Cc1ccc(-c2c(C)c(-c3cc(Cl)cc(Cl)c3)nn2C(C)c2ccc(C(=O)NCCC(=O)O)cc2)cc1 (stereo not given)", "pIC50": 6.41}
{"compound": "Cc1c(-c2cc(Cl)cc(Cl)c2)nn(C(C)c2ccc(C(=O)NCCC(=O)O)cc2)c1-c1ccc2occc2c1 (stereo not given)", "pIC50": 6.52}
{"compound": "CCOc1ccc2cc(-c3c(C)c(-c4cc(Cl)cc(Cl)c4)nn3C(C)c3ccc(C(=O)NCCC(=O)O)cc3)ccc2c1 (stereo not given)", "pIC50": 6.74}
{"compound": "COc1ccc2cc(-c3c(C)c(-c4cc(Cl)cc(Cl)c4)nn3C(C)c3ccc(C(=O)NCCC(=O)O)cc3)ccc2c1 (racemic)", "pIC50": 7.05}
{"compound": "Cc1c(-c2cc(Cl)cc(Cl)c2)nn(C(C)c2ccc(C(=O)NCCC(=O)O)cc2)c1-c1ccc2[nH]ccc2c1 (stereo not given)", "pIC50": 5.41}
{"compound": "Cc1c(-c2cc(Cl)cc(Cl)c2)nn(Cc2ccc(C(=O)NCCC(=O)O)cc2)c1-c1cccc2ccccc12", "pIC50": 5.55}
{"compound": "COc1ccc2cc(-c3c(C)c(-c4ccccc4)nn3C(C)c3ccc(C(=O)NCCC(=O)O)cc3)ccc2c1 (stereo not given)", "pIC50": 5.72}

Values from ChEMBL document CHEMBL4219128
